assayed_target: BRD4 (BD1) (Homo sapiens, UniProt O60885)
Construct: Each member comprises two tandem bromodomains (BD1 and BD2) for recognizing the acetylated lysine residues
method_description: BRD4 (BD1) bromodomain binding, HTRF
experimental_parameters: 2 h incubation at r.t.
Below is a list of entries, each paired with its recorded pIC50 value.
Convention used: pIC50 is expressed as -log10 of the molar concentration.

Previously resolved entries follow.
- given_smiles: "CCNC(=O)C[C@@H]1N=C(c2ccc(F)cc2)c2cc(OC)ccc2-c2cn(C)c(=O)cc21"
  observed_measurement: 8.52
- given_smiles: "COc1ccc2c(c1)-c1cn(C)c(=O)cc1CN=C2c1ccc(F)cc1"
  observed_measurement: 8.00

Under BRD4 (BD1) (Homo sapiens, UniProt O60885): pIC50 value of Cn1cc2c(cc1=O)CN=C(c1ccc(Cl)cc1)c1ccccc1-2 ?
7.52

Param item: CCS(=O)(=O)Cc1ccc2c(c1)-c1cn(C)c(=O)cc1[C@H](C)N=C2c1ccc(C#N)cc1
8.40

Also Cn1cc2c(c1C(N)=O)CCN(c1ccc(F)cc1)c1ncc(F)cc1-2 ?
6.79

And for CCS(=O)(=O)Cc1ccc2c(c1)-c1cn(C)c(=O)cc1[C@H](C)N=C2c1ccc(F)cc1 ?
8.70

What do we get for CNS(=O)(=O)Cc1ccc2c(c1)-c1cn(C)c(=O)cc1N(C)N=C2c1ccc(F)cc1 ?
8.70

Entry to check: CNS(=O)(=O)Cc1ccc2c(c1)-c1cn(C)c(=O)cc1[C@H](C)N=C2c1ccc(F)c(OC)c1
8.70

###

method_description: Cassette pharmacokinetic study, intravenous or oral administration
Assay type: in vivo, female Balb/c nude mice
experimental_parameters: female, Balb/c nude, mouse, whole blood; IV 0.5 mg/kg, N = 3, cassette
Description: Determinations of the pharmacokinetic parameters of ABBV-075 (standard control), 4009, 4018, 4026 and 4031 in femal Balb/c nude mice after intravenous or oral administration. Detailed Experimental Steps: 6 female Balb/c nude mice weighing 18-20 g were divided into two groups (3/group), after fixation, the intravenous group: 0.5 mg/kg (5 mL/kg) injected by caudal vein (N=3); the oral group: 2 mg/kg (10 mL/kg) by intragastic administration (N=3). […]
This section presents compounds with their documented MRT inf values.

Worked cases, MRT inf given:
- given_smiles: "CCS(=O)(=O)Nc1ccc(Oc2ccc(F)cc2F)c(-c2cn(C)c(=O)c3[nH]ccc23)c1"
  MRT inf: "3.1 h"
- given_smiles: "CCS(=O)(=O)Cc1ccc2c(c1)-c1cn(C)c(=O)cc1CN=C2c1ccc(F)cc1"
  MRT inf: "1.61 h"

Record request: MRT inf value, item CCS(=O)(=O)Nc1ccc2c(c1)-c1cn(C)c(=O)cc1CN=C2c1ccc(F)cc1
0.59 h

Repeat for the following compound: CCS(=O)(=O)Nc1cc2c(cc1Cl)C(c1ccc(F)cc1)=NCc1cc(=O)n(C)cc1-2
3.5 h

Then what about the compound CCS(=O)(=O)Cc1ccc2c(c1)-c1cn(C)c(=O)cc1[C@H](C)N=C2c1ccc(F)cc1 ?
3.21 h

###

assayed_target: BRD4 (BD2) (Homo sapiens, UniProt O60885)
Construct: Each member comprises two tandem bromodomains (BD1 and BD2) for recognizing the acetylated lysine residues
method_description: BRD4 (BD2) bromodomain binding, HTRF
experimental_parameters: 2 h incubation at r.t.
measurement_name: IC50
Answers without a unit are incomplete; give the number and then its unit.

Study these solved cases before continuing.
- molecule: "CCS(=O)(=O)Cc1cc2c(cc1O)C(c1ccc(F)cc1)=N[C@@H](C)c1cc(=O)n(C)cc1-2"
  assayed_target: "BRD4 (BD2) (Homo sapiens, UniProt O60885)"
  IC50: "1 nM"
- molecule: "C[C@@H]1N=C(c2ccc(F)cc2)c2ccc(CS(N)(=O)=O)cc2-c2cn(C)c(=O)cc21"
  assayed_target: "BRD4 (BD2) (Homo sapiens, UniProt O60885)"
  IC50: "1 nM"
- molecule: "C[C@@H]1N=C(c2ccc(F)cc2)c2ccc(CS(C)(=O)=O)cc2-c2cn(C)c(=O)cc21"
  assayed_target: "BRD4 (BD2) (Homo sapiens, UniProt O60885)"
  IC50: "1 nM"

Form field: reported IC50 of CCS(=O)(=O)Cc1ccc2c(c1)-c1cn(C)c(=O)cc1[C@H](C)N=C2c1ccc(O)cc1
1 nM

Input CCS(=O)(=O)Cc1ccc2c(c1)-c1cn(C)c(=O)cc1[C@H](C(F)(F)F)N=C2c1ccc(F)cc1
2 nM

Now this one: C[C@@H]1N=C(c2ccc(F)cc2)c2ccc(CS(=O)(=O)N(C)C)cc2-c2cn(C)c(=O)cc21
1 nM

Would you kindly repeat that for CCS(=O)(=O)Cc1ccc2c(c1)-c1nn(C)c(=O)cc1C(C)N=C2c1ccc(F)cc1 (stereo not shown) ?
3 nM

###

Test system: MV-4-11 cells
method_description: Inhibitory effect on MV-4-11 cells (CellTiter-Glo)
Assay type: cell-based
experimental_parameters: Homo sapiens, MV4-11; 72 hours, CellTiter-Glo; read-out: MV-4-11
IC50 by entry:
Form entry: value (nM) — number only.

These recorded examples may help you get a feel for the data.
- molecule: "CNS(=O)(=O)C(C)c1ccc2c(c1)-c1cn(C)c(=O)cc1[C@H](C)N=C2c1ccc(F)cc1 (stereo partly shown)"
  IC50, nM: 3
- molecule: "C[C@@H]1N=C(c2ccc(F)cc2)c2ccc(CS(=O)(=O)N(C)C)cc2-c2cn(C)c(=O)cc21"
  IC50, nM: 2
- molecule: "CCS(=O)(=O)Nc1cc2c(cc1F)C(c1ccc(F)cc1)=N[C@@H](C1CC1)c1cc(=O)n(C)cc1-2"
  IC50, nM: 0.5

Record CCS(=O)(=O)Cc1ccc2c(c1)-c1cn(C)c(=O)cc1CN=C2c1ccc(Cl)cc1F : what is its IC50 with MV-4-11 cells?
75

# repeat for CCS(=O)(=O)Cc1ccc2c(c1)-c1cn(C)c(=O)cc1[C@H](C)N=C2c1ccc(C#N)cc1
10

Proceed to COc1ccc2c(c1)C(c1ccc(F)cc1)=NCc1cc(=O)n(C)cc1-2
134

###

// values below are reported log10 IC50
assayed_target: BRD4 (BD2) (Homo sapiens)
Construct: Each member comprises two tandem bromodomains (BD1 and BD2) for recognizing the acetylated lysine residues
method_description: BRD4 (BD2) bromodomain binding, HTRF
experimental_parameters: 2 h incubation at r.t.
Form field - Quantity: IC50; Unit: nM; Scale: log10

Below, each entry is followed by its recorded log10 IC50 result.
- compound: "Cn1cc2c(cc1=O)[C@H](CC(N)=O)N=C(c1ccc(Cl)cc1)c1ncccc1-2 [Compound 4029]"
  log10 IC50: 0.30
- compound: "CNS(=O)(=O)Cc1ccc2c(c1)-c1cn(C)c(=O)cc1N(C)N=C2c1ccc(F)cc1 [Compound 4099]"
  log10 IC50: -0.05
- compound: "Cn1cc2c(cc1=O)CN=C(c1ccc(F)cc1)c1ccc(CS(C)(=O)=O)cc1-2 [Compound 4007]"
  log10 IC50: 0.85

For the next question, use this compound.
Recorded log10 IC50 for CC[C@@H]1N=C(c2ccc(F)cc2)c2cc(Cl)c(NS(=O)(=O)CC)cc2-c2cn(C)c(=O)cc21 [Compound 4065] , please?
0.00

###

Property: log10 IC50; scope: individual compounds
Tested on: MV-4-11 cells
method_description: Inhibitory effect on MV-4-11 cells (CellTiter-Glo)
Format: cell-based
experimental_parameters: Homo sapiens, MV4-11; 72 hours, CellTiter-Glo; read-out: MV-4-11
Values reflect log10 of reported IC50 (nM).

- compound: "CC[C@@H]1N=C(c2ccc(Cl)cc2)c2ccc(CS(=O)(=O)CC)cc2-c2cn(C)c(=O)cc21 [Compound 4047]"
  assayed_target: "MV-4-11 cells"
  measurement_name: "log10 IC50"
  observed_measurement: 0.30
- compound: "CCNC(=O)C[C@@H]1N=C(c2ccc(Cl)cc2)c2ncccc2-c2cn(C)c(=O)cc21 [Compound 4030]"
  assayed_target: "MV-4-11 cells"
  measurement_name: "log10 IC50"
  observed_measurement: 1.23
- compound: "CCS(=O)(=O)Cc1ccc2c(c1)-c1cn(C)c(=O)cc1CN=C2c1ccc(F)c(OC)c1 [Compound 4089]"
  assayed_target: "MV-4-11 cells"
  measurement_name: "log10 IC50"
  observed_measurement: 2.03
- compound: "Cn1cc2c(cc1=O)CN=C(c1ccc(F)cc1)c1ccc(CS(C)(=O)=O)cc1-2 [Compound 4007]"
  assayed_target: "MV-4-11 cells"
  measurement_name: "log10 IC50"
  observed_measurement: 2.07
- compound: "CCS(=O)(=O)Cc1ccc2c(c1)-c1cn(C)c(=O)cc1[C@H](C)N=C2c1ccc(F)c(O)c1 [Compound 4064]"
  assayed_target: "MV-4-11 cells"
  measurement_name: "log10 IC50"
  observed_measurement: 0.90

Looking for the measured log10 IC50 of CCS(=O)(=O)Cc1cc2c(cc1Cl)C(c1ccc(F)cc1)=N[C@@H](C)c1cc(=O)n(C)cc1-2 [Compound 4086] , can you help?
0.48
